- assay.procedure: Solubility of the compound in Japanese Pharmacopoeia First Fluid of pH 1.2 by HPLC
- Type: physicochemical
Below, each of the compounds is paired with its reported solubility value.

CN1CCc2nc(C(=O)N[C@@H]3CCCC[C@H]3CNC(=O)c3ccc(Cl)s3)sc2C1 (relative stereo): > 600 µg/mL

Q: GET /values?readout=solubility&item= `CC(C)N1CCC(C(=O)Nc2ccccc2CNC(=O)c2ccc(Cl)s2)CC1`
Ans: > 680 µg/mL

Q: Need solubility, item `CN1CCc2nc(C(=O)Nc3ccccc3CNC(=O)c3ccc(Cl)[nH]3)sc2C1`
Ans: > 810 µg/mL

Q: Suppose we examine the compound `CN1CCc2nc(NC(=O)c3ccccc3CNC(=O)c3ccc(Cl)s3)sc2C1` ; what solubility value has been reported?
Ans: > 640 µg/mL

Q: Would you mind telling me what solubility value was observed for `CN1CCc2nc(C(=O)Nc3ccccc3CC(=O)Nc3ccc(Cl)cn3)sc2C1` ?
Ans: 600 µg/mL

Q: Request the reported solubility associated with `CN1CCc2nc(C(=O)Nc3cnccc3CNC(=O)c3ccc(Cl)s3)sc2C1`
Ans: > 590 µg/mL

Q: Dear colleague, I am looking for the recorded solubility of the following compound: `CN1CCc2nc(C(=O)Nc3ccccc3CNC(=O)c3cccc(Cl)c3)sc2C1`
Ans: 680 µg/mL

Q: Value lookup for solubility; key = `O=C(Nc1ccccc1CNC(=O)c1ccc(Cl)s1)c1ccc(N2CCOCC2=O)cc1`
Ans: < 2.3 µg/mL

Entry source: ChEMBL document CHEMBL1681729
